The reported numbers originate from PubChem BioAssay AID2685.

Parameter cell number change: see the listing below.
assayProtocol: qHTS Assay for Lipid Storage Modulators in Drosophila S3 Cells;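 on cell number change: cells counted by Cell Tracker Red CMTPX staining in the red channel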
conditionLabel: BODIPY lipid droplet fluorescence, 18-24 h, cells fed with added oleic acid; measured here: cell count max response
In all, about 320,000 compounds went through this assay and about 2,100 (0.66%) were called active. Inconclusive results (about 53%) are left out. The list comes from a sample in which actives are over-represented; it also holds close analogues and randomly drawn compounds.
parameterMeasured: cell number change (%)

>>> print(df.to_string())
                                  structure  reportedmeasurement
0      N#Cc1ccccc1COC(=O)c1cc(=O)c2ccccc2o1                 7.26
1  CC(C)NC(=O)CN(Cc1ccc2c(c1)OCO2)C(=O)CCC(=O)Nc1ccccn1                 0.42
2      O=C(OCc1ccc(F)cc1)c1cc(=O)c2ccccc2o1                 11.3
3  CC(C)CCNC(=O)CN(Cc1ccc2c(c1)OCO2)C(=O)CCC(=O)Nc1ccccn1                 2.93
4  O=C(CN(Cc1ccccc1)C(=O)CCC(=O)Nc1ccccn1)NCc1ccc(F)cc1                 7.92
5  COc1ccc(CN(CC(=O)NCc2ccc(F)cc2)C(=O)CCC(=O)Nc2cc(C)ccn2)cc1                 6.52
6      COc1ccc(C(C)=O)cc1COC(=O)c1cc(C)oc1C                -12.2
7  COc1ccc(CCN(C)C(=O)c2cc(-c3ccccc3)nc3ccccc23)cc1OC                 -2.7
8  Cc1ccnc(NC(=O)CCC(=O)N(CC(=O)NC(C)(C)C)c2ccc3c(c2)OCCO3)c1                 5.82
9  CCc1ccc(N(CC(=O)NC(C)C)C(=O)CCC(=O)Nc2ccccn2)cc1                  -21

* * *

assayProtocol: qHTS Assay for Lipid Storage Modulators in Drosophila S3 Cells
conditionLabel: BODIPY lipid droplet fluorescence, 18-24 h, cells fed with added oleic acid; series mostly up to 46.1 µM
Out of some 320,000 compounds screened, about 2,100 (0.66%) were called active. Another 53% or so got no clear call; they are omitted. Calls follow the shape of the dose curve; as a rule, active = well fitted inhibition curve with a large enough effect in the signal ratio, with a control signal flat (not every such curve was filed as active); inconclusive = small, poorly fitted or top-dose-only effect, or effect the other way, or a change in a side signal; inactive = flat fitted curve, though single readings scatter; the % refers to the signal ratio. Only a selection was taken, and actives are over-represented in it overall.
Labels: 1 = active, 0 = inactive

                                  structure  answerlabel
0  CN1c2ccccc2C(O)=C(C(=O)Nc2ccccc2)S1(=O)=O            0
1  CN1c2ccsc2C(O)=C(C(=S)Nc2ccccc2)S1(=O)=O            1
2  CC(=O)c1ccc(NC(=O)c2ccc(CSc3ccccc3)o2)cc1            0
3  Cc1ccccc1NC(=S)C1=C(O)c2sccc2N(C)S1(=O)=O            0
4  COc1ccc(Cl)cc1NC(=O)COC(=O)c1c(-c2ccccc2)noc1C            0
5  COCCOc1ccc(C(F)(F)F)cc1NC(=O)COC(=O)c1c(C)noc1C            0

* * *

assayProtocol: qHTS Assay for Lipid Storage Modulators in Drosophila S3 Cells
conditionLabel: BODIPY lipid droplet fluorescence, 18-24 h, cells fed with added oleic acid; series mostly up to 46.1 µM
Screen size: about 320,000 compounds; about 2,100 (0.66%) were called active. About 53% were inconclusive and are not listed. Calls follow the shape of the dose curve; as a rule, active = well fitted inhibition curve with a large enough effect in the signal ratio, with a control signal flat (not every such curve was filed as active); inconclusive = small, poorly fitted or top-dose-only effect, or effect the other way, or a change in a side signal; inactive = flat fitted curve, though single readings scatter; the % refers to the signal ratio. The full list was thinned out, with actives kept by preference.
Outcome codes: yes = active, no = inactive

>>> df
                                    compound  answerlabel
 0       CC(=O)C(=Nc1ccccc1Cl)NNc1ccc(Cl)cc1          yes
 1  O=C(NCc1cccnc1)C1CCN(c2ccc(S(=O)(=O)N3CCOCC3)cc2Cl)CC1           no
 2  COCCNC(=O)c1ccc2c(c1)S(=O)(=O)c1cc(Cl)ccc1C2=O          yes
 3  Cc1ccc(NC(=O)c2sc3nc4c(c(-c5ccco5)c3c2N)CCC4)cc1           no
 4  CCCN(c1ccccc1F)S(=O)(=O)c1cc(-c2cc(C)no2)ccc1OC          yes
 5      O=C1c2cccc3cccc(c23)C(=O)N1Nc1ccccc1           no
 6  Cc1ccc(N2C(=O)C3C(C2=O)N2CCCN2C3c2ccccc2)cc1C (stereo not drawn)           no
 7  CC1=CC(C)C2C(=O)N(CCC[N+](C)(C)C)C(=O)C2C1 (stereo not drawn)           no
 8  Nc1c(C(=O)Nc2ccccc2)sc2nc3c(c(-c4ccco4)c12)CCCC3           no
 9  CC1=CC(C)C2C(=O)N(c3ccccc3)NC(=O)C2C1 (stereo not drawn)           no
10               CCOC(=O)C(=O)NNc1ccc(Cl)cc1           no
11  CC1=CC(C)C2C(=O)N(O)C(=O)C2C1 (stereo not drawn)          yes
12  CS(=O)(=O)c1ccccc1C(=O)N(CCc1ccccc1)Cc1ccccc1           no
13  COc1ccc(-c2cc(C)no2)cc1S(=O)(=O)N(C)c1ccc(C)cc1           no
14  Nc1c(C(=O)NCC2CCCO2)sc2nc3c(c(-c4ccco4)c12)CC/C3=C\c1ccco1 (stereo not drawn)          yes
15           COc1ccc(NC(=O)NCCCCc2ccccc2)cc1           no
16  O=C(NCC1CC1)c1ccc2c(c1)S(=O)(=O)c1cc(Cl)ccc1C2=O           no
17  COC(=O)CCN(c1ccccc1)S(=O)(=O)c1cc(-c2cc(C)no2)ccc1OC           no
18  Cc1cc(C(=O)N2CCCC(C(=O)c3ccc4ccccc4c3)C2)nn1C (stereo not drawn)           no
19  CC1(C)CC(=O)C2=C(C1)N=C1SCCC(=O)N1C2c1ccccc1 (stereo not drawn)           no
20  CCCNC(=O)c1ccc2c(c1)S(=O)(=O)c1ccccc1C2=O           no
21  CC(C)c1cc(C(=O)N2CCCC(C(=O)c3ccc4ccccc4c3)C2)on1 (stereo not drawn)           no
22   COc1cccc(CNC(=O)CCCNS(=O)(=O)c2cccs2)c1           no

* * *

assayProtocol: qHTS Assay for Lipid Storage Modulators in Drosophila S3 Cells
conditionLabel: BODIPY lipid droplet fluorescence, 18-24 h, cells fed with added oleic acid; series mostly up to 46.1 µM
Hit rate of the full screen: of about 320,000 compounds, about 2,100 (0.66%) were called active. About 53% were inconclusive and are not listed. The call rests on the fitted dose curve; in most records, active means well fitted inhibition curve with a large enough effect in the signal ratio, with a control signal flat (not every such curve was filed as active); inconclusive means small, poorly fitted or top-dose-only effect, or effect the other way, or a change in a side signal; inactive means flat fitted curve, though single readings scatter; the % refers to the signal ratio. This is one part of a sample in which actives are shown more often than they occur.
Possible outcomes: active, inactive

>>> df
                                    molecule  answerlabel
 0  O=C(Nc1cccc(NC(=O)c2ccccc2[N+](=O)[O-])n1)c1ccccc1[N+](=O)[O-]     inactive
 1                 Cc1cccc(NC(=S)NC2CCCC2)c1     inactive
 2  COc1cccc(CNC(=O)c2cc(C3CC3)nc3c2cnn3C(C)C)c1     inactive
 3  O=C(COC(=O)C1CCCN1C(=O)c1cccs1)Nc1ccc2c(c1)OCO2 (configuration not stated)     inactive
 4  COc1ccc(/C=N/NC(=O)c2cccc(NC(=O)c3ccccc3Cl)c2)cc1     inactive
 5  COc1ccc(/C=C2\SC(=O)N(CCNC(=O)C3CC4C=CC3C4)C2=O)cc1 (configuration not stated)     inactive
 6  CC1=C(C)CC(C(=O)NNC(=O)c2csc(C)c2C)C(C(=O)O)C1 (configuration not stated)     inactive
 7  O=C(CN1CCN(Cc2ccccc2Cl)CC1)N/N=C/c1cccs1     inactive
 8       O=C(O)CCN1C(=O)S/C(=C\c2cccnc2)C1=O     inactive
 9                O=C(Nc1cccc(F)c1)NC1CCCCC1     inactive
10  Cc1cc(Br)ccc1NC(=O)C(C)c1ccc([N+](=O)[O-])cc1 (configuration not stated)     inactive
11  COc1cccc(NC(=O)[C@@H]2CCCN2C(=O)[C@@H]2Cc3ccccc3CN2C(=O)OC(C)(C)C)c1     inactive
12  COc1ccc(/C=C2/SC(=O)N(CCNC(=O)C3COc4ccccc4O3)C2=O)cc1 (configuration not stated)     inactive
13          FC(F)(F)c1cccc(NC(=S)NC2CCCC2)c1       active
14  O=C(NCCN1C(=O)S/C(=C/c2cccnc2)C1=O)c1cccs1       active
15  Cc1ccc(CNC(=O)c2cc(C3CC3)nc3c2cnn3C(C)C)cc1     inactive
16              O=C(Nc1cccc(F)c1)NC1CCCCCCC1       active
17  Cn1c(C(=O)N2CCN(c3ccc(Cl)cc3)CC2)cc2c(=O)[nH]c3ccccc3c21     inactive
18  COc1ccc(OC)c(Nc2nc3nonc3nc2N2CCCC(C)C2)c1 (configuration not stated)     inactive
19  Cc1ccc(C(C(=O)NCc2ccc(F)cc2)N(Cc2ccco2)C(=O)c2snc(C(N)=O)c2N)o1 (configuration not stated)       active
20  COc1ccc(CNC(=O)c2cc(C3CC3)nc3c2cnn3C(C)C)cc1OC       active
21  O=C(CN1C(=O)c2ccccc2C1=O)Nc1ccccc1C(=O)NC1CCCCCC1     inactive
